Catalogue of log10 of GI50 readings, one per entry.
# Tested on: T-47D
# method-notes: NCI60 five-dose screen
# Format: cell-based
# experimental-setup: Homo sapiens, T47D
Please note: log10 values; quantity GI50; unit nM.

Record excerpt, results attached:
CC[C@]12C=CCN3CC[C@@]4(c5ccc(OC)cc5N(C)[C@H]4[C@@](O)(C(=O)OC)[C@@H]1OC(=O)CCCC[P+](c1ccccc1)(c1ccccc1)c1ccccc1)[C@@H]32 [compound 4, reference compound]
2.48
CC[C@]12C=CCN3CC[C@@]4(c5ccc(OC)cc5N(C)[C@H]4[C@@](O)(C(=O)OC)[C@@H]1OC(=O)CCC[P+](c1ccccc1)(c1ccccc1)c1ccccc1OC)[C@@H]32
2.48
CC[C@]12C=CCN3CC[C@@]4(c5ccc(OC)cc5N(C)[C@H]4[C@@](O)(C(=O)OC)[C@@H]1OC(=O)CCC[P+](c1ccc(F)cc1)(c1ccc(F)cc1)c1ccc(F)cc1)[C@@H]32
4.02
CC[C@]12C=CCN3CC[C@@]4(c5ccc(OC)cc5N(C)[C@H]4[C@@](O)(C(=O)OC)[C@@H]1OC(=O)CCCC[P+](c1ccc(C)cc1)(c1ccc(C)cc1)c1ccc(C)cc1)[C@@H]32 [10a]
2.57

Consider the additional compound presented here.
Answer with the recorded log10 of GI50 for the compound listed here: CC[C@]12C=CCN3CC[C@@]4(c5ccc(OC)cc5N(C)[C@H]4[C@@](O)(C(=O)OC)[C@@H]1OC(=O)CCC[P+](C1CCCCC1)(C1CCCCC1)C1CCCCC1)[C@@H]32 3.12
